experiment: WHO-TDR: Cytotoxicity; type: toxicity, cell-based; conditions: human, MRC5 cells
The label Met is reserved for IC50 strictly under 3 µg/mL; Not met covers values equal to or above it.

Here's an entry: "COc1cc(OC)cc(C(=O)N2CCN(c3nccn3-c3cccc(Cl)c3)CC2)c1" . Is its IC50 below 3 µg/mL?
Not met

# check: IC50 < 3 µg/mL for "CCCc1cc(=O)[nH]c(-n2nc(C)cc2NC(=O)C23CC4CC(CC(C4)C2)C3)n1"
Met

Below 3 µg/mL on IC50? Entry "COc1ccccc1N1CCN(c2nc(Nc3ccc(C)cc3)c3nccnc3n2)CC1"
Not met

Report whether reported IC50 is lower than 3 µg/mL (strictly) for "COc1ccc(C)c2sc(N(CCCN(C)C)C(=O)c3ccccc3SC)nc12"
Not met

Given O=C(CC1CSc2nccc(=O)n21)Nc1ccc(Cl)c(Cl)c1 (stereo unspecified) , is recorded IC50 strictly lower than 3 µg/mL?
Not met

Hello, I'm reviewing records and need to know if IC50 of "Cc1cc(NC(=O)c2cccs2)n(-c2nc3c(c(=O)[nH]2)CCC3)n1" is below 3 µg/mL. Could you check?
Met

State whether 3 µg/mL exceeds IC50 recorded for "O=C(c1ccc2c(c1)OCCO2)N(CCCn1ccnc1)c1nc2c(F)cccc2s1" .
Not met

In plain terms, does "CCOC(=O)c1c(NC(=O)Cn2c(-n3nc(C)cc3C)nc(CC)cc2=O)sc2c1CCC2" come in under 3 µg/mL for IC50?
Not met

Find out if reported IC50 for "O=C(Nc1ccc(SCC(=O)N2CCc3ccccc32)nn1)c1ccccc1F" is less than 3 µg/mL
Not met

Strictly below 3 µg/mL: is that where IC50 of "Cc1ccc(Cl)cc1S(=O)(=O)Nc1ccc2c(c1)NC(=O)C(C)(C)CO2" sits?
Not met

API: query returns whether the molecule falls strictly under 3 µg/mL in IC50. Query: "O=C(Nc1nnc(-c2ccco2)o1)c1cc(-c2ccccc2)nc2ccccc12"
Met

Check if IC50 falls below 3 µg/mL for CCN1CCc2c(sc(NC(=O)c3ccc(S(=O)(=O)N4CC5(C)CC4CC(C)(C)C5)cc3)c2C(N)=O)C1 (stereo unspecified) .
Not met

Given O=S(=O)(NCC(c1cccs1)N1CCOCC1)c1ccc(Cl)s1 (stereo unspecified) , is recorded IC50 strictly lower than 3 µg/mL?
Not met

IC50 under 3 µg/mL? Item: "COc1cccc(OCC(=O)N2CCN(c3nccn3-c3cccc(Cl)c3)CC2)c1"
Not met

Record "O=C(c1c(F)cccc1F)N(Cc1ccccn1)c1nc2ccccc2s1" : is its IC50 strictly below 3 µg/mL?
Met

Please let me know if "Cc1ccnc(Nc2ccc(N3CCN(C(=O)c4ccc(F)cc4)CC3)nn2)c1" shows IC50 below 3 µg/mL.
Not met

Hi there! Is IC50 for "CS(=O)(=O)N1CCN(c2ccc(-c3ccccn3)nn2)CC1" below 3 µg/mL, do you know?
Not met

Is it true that IC50 reported for "Cc1ccc(SCCC(=O)Nc2nc(-c3ccccn3)cs2)cc1" is less than 3 µg/mL?
Not met

Confirm or reject: IC50 of "COc1ccc(Cl)c2sc(N(CCCN(C)C)C(=O)c3ccc(Br)s3)nc12" lies strictly below 3 µg/mL
Not met

Data credit: ChEMBL document CHEMBL2093137
